The measured values listed here are drawn from the RNAGym collection of RNA variant scans (doi:10.1038/s41586-018-0170-7).

B1: tRNA (parent)
chain: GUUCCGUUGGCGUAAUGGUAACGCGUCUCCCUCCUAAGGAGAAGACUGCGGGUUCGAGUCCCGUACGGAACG

variants of: B1; test: yeast fitness, log relative to wild type (ln ratio); higher = fitter; tRNA-Arg(CCU), competitive growth, 37 C, 1 M NaCl
Category key, based on recorded yeast fitness (ln): zone 1 (below -0.3), zone 2 (-0.3 to below -0.09), zone 3 (-0.09 or more)

Which bin should I file GCUCCUUUGGCGUAAUGGUAACGCGUCUCCCUCCUAAGGAGAAGACUGCGGGUUCGAGUCCCGUACGGAAUG [U2C G6U C71U] under?
zone 3

Which bin should I file GGUCCAUUGGCGUAAUGGUAACGCGUUUCCCUCCUAAGGAGAAGAUUGCGGGUUCGAGUCCCGUAUGGAACG [U2G G6A C27U C46U C66U] under?
zone 2

Which bin should I file AUUCCUUUGGCGUAAUGGUAACGCGUCUCCCUCCUAAGGAGACGAUUGCGGGUUCGAGUCCCGUACGGAGCG [G1A G6U A43C C46U A70G] under?
zone 2

Which bin should I file ACUCCAUUGGCGUAAUGGUAACGCGUUUCCCUCCUAAGGAGACGACUGCGGGUUCGAGUCCCGUAUGGGGUG [G1A U2C G6A C27U A43C C66U A69G A70G C71U] under?
zone 2

Which bin should I file GUUCCAUUGGCGUAAUGGUAACGCGUUUCCCUCCUAAGGAGAAGACUGCGGGUUCGAGUCCCGUAUGGAGCG [G6A C27U C66U A70G] under?
zone 2
